Tested on: Fibroblast
Experiment: Incucyte cell viability with human fibroblast; also: unitless GR value; below 1 slowed growth and below 0 cell loss
Assay type: toxicity, cell-based
Settings: 6 h, 10 µM, compound concentration 10 uM, replicate number 2
# Growth Rate per entry
READOUT_NAME: Growth Rate

> print(dat)
                                   compound  measured.number
1     O=C(Nc1cccc(C(F)(F)F)c1)c1cc(Cl)ccc1O            -0.88
2  Cc1nnc2ccc(-c3cccc(C(F)(F)F)c3)nn12 [CI-218872]               -1
3  COc1ccc(F)c(F)c1C(=O)c1cnc(NC2CCN(S(C)(=O)=O)CC2)nc1N [RG-547]             0.62
4  CCN(C(=O)CO)[C@H]1CN(/C(=N\C#N)Nc2cccc(OC(F)F)c2)N=C1c1ccc(Cl)c(Cl)c1             0.31
5  CCc1ncnc(N2CCN(C(C)=O)CC2)c1C#Cc1ccc(N)nc1.Cl.Cl              0.3
6  COc1cc(-c2cc3ncccc3c(OC[C@H]3CNC(=O)C3)n2)cc(OC)c1OC1CCOCC1.O=C(O)C(F)(F)F             0.67
7  Cc1ccc(NC(=O)c2ccc3cnccc3c2)cc1C(=O)Nc1cnc(Nc2cccc(NC3CCN(C(=O)/C=C/CN(C)C)CC3)c2)nc1               -1
8  Cl.NCC(O)c1ccc(O)cc1 (centres undefined) [OCTOPAMINE HYDROCHLORIDE]            -0.67
9  CC(=O)Nc1nc(C)c(S(=O)(=O)Nc2ccc(C(O)(C(F)(F)F)C(F)(F)F)cc2)s1             0.51
